Value source: paper PMC4160056

# assay procedure: Kinetic solubility
# Type: physicochemical
# details: Pion Prisma HT Universal buffer (pION), pH 0
measurement kind: solubility (µM)
Answers are plain numbers, in µM.

Study these solved cases before continuing.
* COc1cc(C(=O)Nc2cccc(NC(=O)c3cccc(C)c3)c2)ccn1 | 120
* CCOc1ccccc1C(=O)Nc1cccc(NC(=O)c2ccccc2C(F)(F)F)c1 | 0.16

Please find the next compound below.
For the compound shown here, "Cc1cccc(C(=O)Nc2cccc(NC(=O)c3ccncc3)c2)c1" , give the reported solubility.
93.2

----------
Hi there, I'd appreciate the recorded TF assay selectivity TASK-3 IC50/TASK-1 IC50 for every entry that follows.
# study target: TASK-1 channel (Homo sapiens, UniProt O14649)
# Sequence (O14649 whole entry): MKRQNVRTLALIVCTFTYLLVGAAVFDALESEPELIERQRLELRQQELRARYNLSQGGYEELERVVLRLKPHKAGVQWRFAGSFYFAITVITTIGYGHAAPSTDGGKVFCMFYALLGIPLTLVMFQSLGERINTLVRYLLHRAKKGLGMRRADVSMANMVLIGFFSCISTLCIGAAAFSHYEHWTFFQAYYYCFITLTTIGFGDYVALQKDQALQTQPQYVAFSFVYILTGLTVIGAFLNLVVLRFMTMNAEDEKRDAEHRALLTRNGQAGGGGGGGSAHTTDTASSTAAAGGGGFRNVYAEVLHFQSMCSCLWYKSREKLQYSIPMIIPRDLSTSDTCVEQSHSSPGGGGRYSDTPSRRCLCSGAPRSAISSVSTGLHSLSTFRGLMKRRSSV
# assay procedure: TASK-1 thallium flux
# Assay type: cell-based
# details: ratio of TF assay IC50 values

Study these solved cases before continuing.
* O=C(Nc1cccc(NC(=O)c2ccncc2)c1)c1ccccc1 | >120
* COc1ccccc1C(=O)Nc1cccc(NC(=O)c2ccccc2OC(F)(F)F)c1 | 100
* COc1ccc(C(=O)Nc2cccc(NC(=O)c3cccc(C)c3)c2)cc1 | >23
* O=C(Nc1cccc(NC(=O)c2ccccc2)c1)c1ccccc1 | > 1100
* O=C(Nc1cccc(NC(=O)c2cccc(C(F)(F)F)c2)c1)c1ccccc1 | > 190
* O=C(Nc1cccc(NC(=O)c2cccc(F)c2)c1)c1ccccc1 | > 670

// for each molecule in input: emit TF assay selectivity TASK-3 IC50/TASK-1 IC50
1. COc1ccccc1C(=O)Nc1cccc(NC(=O)c2cccc(C)c2)c1
2. Cc1cccc(C(=O)Nc2cccc(NC(=O)c3ccncc3)c2)c1
3. Cc1cccc(C(=O)Nc2cccc(NC(=O)c3ccccc3C(F)(F)F)c2)c1
4. Cc1cccc(C(=O)Nc2cccc(NC(=O)c3ccc(C(C)(C)C)cc3)c2)c1

[100, "> 310", 100, ">160"]

----------
# assay procedure: Kinetic solubility
# Format: physicochemical
# details: Pion Prisma HT Universal buffer (pION), pH 7.4
measurement kind: solubility (µM)
Answers are plain numbers, in µM.

* COc1cc(C(=O)Nc2cccc(NC(=O)c3cccc(C)c3)c2)ccn1 | 123

Consider the following items and state reported solubility for each.
1. COc1ccccc1C(=O)Nc1cccc(NC(=O)c2cccc(C)c2)c1
2. Cc1cccc(C(=O)Nc2cccc(NC(=O)c3ccncc3)c2)c1

1. 0.19
2. 94.8

----------
# assay procedure: Kinetic solubility
# Assay type: physicochemical
# details: phosphate buffer saline (PBS), pH 7.4
measurement kind: solubility (µM)
Numbers only, in µM.

Look over these answered cases.
* COc1cc(C(=O)Nc2cccc(NC(=O)c3cccc(C)c3)c2)ccn1 | 1
* COc1ccccc1C(=O)Nc1cccc(NC(=O)c2cccc(C)c2)c1 | 0.028
* Cc1cccc(C(=O)Nc2cccc(NC(=O)c3ccncc3)c2)c1 | 24.7

Read the next record carefully.
Value lookup for solubility; key = "CCOc1ccccc1C(=O)Nc1cccc(NC(=O)c2ccccc2C(F)(F)F)c1"
0.89

----------
# study target: TASK-1 channel (Homo sapiens, UniProt O14649)
# assay procedure: TASK-1 thallium flux
# Format: cell-based
# details: TF assay
Please provide measured selectivity for TASK-1 over TASK-3 (TF assay) for the entries that follow.

* COc1ccccc1C(=O)Nc1cccc(NC(=O)c2ccccc2OC)c1 | > 190 fold
* Cc1cccc(C(=O)Nc2cccc(NC(=O)c3cccc(C(F)(F)F)c3)c2)c1 | > 100 fold
* Cc1cccc(C(=O)Nc2cccc(NC(=O)c3ccncc3)c2)c1 | > 100 fold

Kindly review the next molecule as well.
Record request: selectivity for TASK-1 over TASK-3 (TF assay) value, item "Cc1cccc(C(=O)Nc2cccc(NC(=O)c3ccccc3C(F)(F)F)c2)c1"
> 100 fold

----------
# assay procedure: Kinetic solubility
# Assay type: physicochemical
# details: Pion Prisma HT Universal buffer (pION), pH 6.2
Task for the reader: assign each of the following molecules its reported solubility.
One number for each entry, in µM.

* CCOc1ccccc1C(=O)Nc1cccc(NC(=O)c2ccccc2C(F)(F)F)c1 [compound 60] | 0.12
* COc1cc(C(=O)Nc2cccc(NC(=O)c3cccc(C)c3)c2)ccn1 [compound 61] | 129

Quick one: solubility of Cc1cccc(C(=O)Nc2cccc(NC(=O)c3ccncc3)c2)c1 [compound 52] ?
94.8
